# Test system: c-Abl (mouse);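 further: 11-residue human phosphosite peptides and single-mutation variants displayed on the E. coli surface, counted by deep sequencing, each peptide's frequency after selection divided by its frequency in the unselected input library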;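 further: frequency after pTyr selection over input frequency; kinase dosed for 20-30% of maximal phosphorylation in three min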
# assay-procedure: phosphorylation enrichment, bacterial display (enrichment ratio); higher = better substrate or ligand; peptides without Tyr show the background
Decide by phosphorylation enrichment: equal to or exceeding 0.7 means yes, less means no.

Solved cases (10 shown):
- seq: "QADVVYVNTQL [MERTK_Y872_I871V]"
  discrete-label: "no"
- seq: "DKNSSYFADWL [TUBB8_Y340]"
  discrete-label: "yes"
- seq: "GSERDYTFEEL [EIF2S2_Y174_YF]"
  discrete-label: "yes"
- seq: "IGEGTYGQVFK [CDK13_Y716_YF]"
  discrete-label: "no"
- seq: "LARDIYKNDFF [ROS1_Y2110_YF]"
  discrete-label: "yes"
- seq: "ISIFYYAKGQP [MPZ_Y82_H81Y]"
  discrete-label: "yes"
- seq: "VATRWYRSPEL [CDKL5_Y177]"
  discrete-label: "no"
- seq: "QNTGDYCDLFG [PTPN11_Y62_Y63C_YF]"
  discrete-label: "yes"
- seq: "RPGSGYTNIMR [PKLR_Y564]"
  discrete-label: "yes"
- seq: "FQASFYRRGDR [LTK_Y677_R673Q_YF]"
  discrete-label: "no"

Okay, next one:
In plain terms: is recorded phosphorylation enrichment at least 0.7 for EQQRAYLEGTC [HLA-C_Y183_L180Q] ?
yes

Source of measurements: the supplement of paper PMC10065799
